Data origin, for the record: patent US10632119B2

molecular target: UniProt:P25100
Sequence (P25100 whole entry): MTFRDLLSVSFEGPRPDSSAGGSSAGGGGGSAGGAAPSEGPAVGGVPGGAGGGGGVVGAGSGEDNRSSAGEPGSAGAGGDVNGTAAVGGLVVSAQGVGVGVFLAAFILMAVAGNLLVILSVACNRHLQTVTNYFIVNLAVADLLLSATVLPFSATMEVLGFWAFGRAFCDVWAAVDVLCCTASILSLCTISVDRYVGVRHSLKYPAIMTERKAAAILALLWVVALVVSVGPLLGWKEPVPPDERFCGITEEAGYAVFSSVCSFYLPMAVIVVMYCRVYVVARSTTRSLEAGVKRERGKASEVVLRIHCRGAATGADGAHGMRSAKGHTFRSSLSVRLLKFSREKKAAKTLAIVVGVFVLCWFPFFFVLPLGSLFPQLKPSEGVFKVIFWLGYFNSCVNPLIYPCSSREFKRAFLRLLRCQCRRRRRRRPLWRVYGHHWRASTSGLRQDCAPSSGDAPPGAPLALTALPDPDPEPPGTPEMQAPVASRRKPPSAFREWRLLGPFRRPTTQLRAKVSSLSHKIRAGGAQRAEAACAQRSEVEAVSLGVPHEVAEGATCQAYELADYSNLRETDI
recordedMetric: pKi
// pKi: -log10(molar conc.)

State, for UniProt:P25100, measured pKi of the molecule listed here: COc1c(Nc2ncc(Cl)c(N[C@H]3[C@@H](C(N)=O)[C@@H]4C=C[C@H]3C4)n2)ccc2c1CC[C@@H](N1CCOCC1)CC2 5.96

====

biological target: ALK (Homo sapiens); assay: ALK enzymatic assay; assay type: biochemical
Sequence (Q9UM73 19-1620): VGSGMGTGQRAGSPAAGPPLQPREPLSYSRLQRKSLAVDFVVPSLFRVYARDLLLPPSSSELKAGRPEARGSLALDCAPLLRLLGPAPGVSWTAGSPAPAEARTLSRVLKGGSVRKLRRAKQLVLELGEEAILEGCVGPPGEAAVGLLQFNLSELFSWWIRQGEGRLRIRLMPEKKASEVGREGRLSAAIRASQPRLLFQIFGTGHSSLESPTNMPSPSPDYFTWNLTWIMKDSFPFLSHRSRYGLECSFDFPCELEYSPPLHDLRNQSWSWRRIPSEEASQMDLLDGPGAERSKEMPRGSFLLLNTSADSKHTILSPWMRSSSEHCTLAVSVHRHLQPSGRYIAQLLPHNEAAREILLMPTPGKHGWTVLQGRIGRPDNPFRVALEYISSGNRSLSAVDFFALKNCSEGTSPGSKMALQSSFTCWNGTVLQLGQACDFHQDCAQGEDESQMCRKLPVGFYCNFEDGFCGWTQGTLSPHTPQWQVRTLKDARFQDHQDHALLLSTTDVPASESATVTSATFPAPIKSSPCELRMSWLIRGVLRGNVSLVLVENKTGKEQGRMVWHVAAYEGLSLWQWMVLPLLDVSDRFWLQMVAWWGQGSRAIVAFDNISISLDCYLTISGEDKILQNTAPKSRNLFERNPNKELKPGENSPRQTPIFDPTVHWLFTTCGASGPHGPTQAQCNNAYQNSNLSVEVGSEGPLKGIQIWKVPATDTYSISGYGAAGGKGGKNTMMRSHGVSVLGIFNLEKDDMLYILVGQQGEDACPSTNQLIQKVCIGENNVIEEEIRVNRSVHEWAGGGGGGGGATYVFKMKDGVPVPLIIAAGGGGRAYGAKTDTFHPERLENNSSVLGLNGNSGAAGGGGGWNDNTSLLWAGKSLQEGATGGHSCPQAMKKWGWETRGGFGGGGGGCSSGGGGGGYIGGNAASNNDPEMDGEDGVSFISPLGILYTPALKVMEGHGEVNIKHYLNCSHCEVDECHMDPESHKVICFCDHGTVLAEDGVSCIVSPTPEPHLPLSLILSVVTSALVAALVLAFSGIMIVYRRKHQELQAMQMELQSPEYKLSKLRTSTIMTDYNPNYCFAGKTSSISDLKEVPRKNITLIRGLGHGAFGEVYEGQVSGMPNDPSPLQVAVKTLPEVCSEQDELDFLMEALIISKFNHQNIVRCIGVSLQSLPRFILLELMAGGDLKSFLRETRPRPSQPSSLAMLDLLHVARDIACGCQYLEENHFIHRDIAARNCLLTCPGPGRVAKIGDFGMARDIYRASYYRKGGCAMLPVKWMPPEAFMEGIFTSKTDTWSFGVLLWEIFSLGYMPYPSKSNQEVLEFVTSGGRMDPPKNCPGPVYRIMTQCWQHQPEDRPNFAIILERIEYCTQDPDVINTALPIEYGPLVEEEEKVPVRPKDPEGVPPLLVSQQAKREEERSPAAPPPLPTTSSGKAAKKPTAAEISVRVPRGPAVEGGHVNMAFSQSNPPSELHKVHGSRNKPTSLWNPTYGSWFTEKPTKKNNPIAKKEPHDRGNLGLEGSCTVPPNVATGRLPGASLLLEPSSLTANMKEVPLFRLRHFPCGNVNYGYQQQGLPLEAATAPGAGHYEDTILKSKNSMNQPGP
recordedMetric: IC50 (nM)
Please reply with the bare figure in nM and do not write the unit itself.

Answer with the recorded IC50 of COc1c(Nc2ncc(Cl)c(N[C@H]3[C@@H](C(N)=O)[C@@H]4C=C[C@H]3C4)n2)ccc2c1CC[C@@H](N1CCOCC1)CC2 only. 3

====

molecular target: Neurokinin NK1 (Homo sapiens)
Sequence (P25103 whole entry): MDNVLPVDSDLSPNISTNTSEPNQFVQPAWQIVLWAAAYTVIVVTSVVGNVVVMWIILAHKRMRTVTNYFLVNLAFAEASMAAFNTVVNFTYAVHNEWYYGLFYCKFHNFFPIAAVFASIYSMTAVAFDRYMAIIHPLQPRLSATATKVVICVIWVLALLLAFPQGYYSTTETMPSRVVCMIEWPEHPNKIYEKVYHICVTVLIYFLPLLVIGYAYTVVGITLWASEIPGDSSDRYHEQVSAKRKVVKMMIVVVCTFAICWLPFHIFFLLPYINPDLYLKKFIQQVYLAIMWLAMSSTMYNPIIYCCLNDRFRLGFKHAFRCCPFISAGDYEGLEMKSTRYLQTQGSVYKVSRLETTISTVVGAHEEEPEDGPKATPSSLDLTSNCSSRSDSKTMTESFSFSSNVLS
recordedMetric: Ki (nM)
Write the answer as a number in nM, unit excluded.

For CNC(=O)c1ccccc1Nc1nc(Nc2ccc3c(c2OC)CCC[C@H](N2CCN(CCO)CC2)C3)ncc1Cl , write its Ki. 1200

====

test: In vitro metabolic stability, human; format: in vitro ADME; settings: human (H); read-out: In vitro metabolic stability t1/2
recordedMetric: half-life (min)
Report only the number, with the unit min understood.

Tell me half-life reported for COc1c(Nc2ncc(Cl)c(N[C@H]3[C@@H](C(N)=O)[C@@H]4C=C[C@H]3C4)n2)ccc2c1CC[C@@H](N1CCOCC1)CC2 10.3

====

target: CYP 2C9 (Homo sapiens)
Sequence (P11712 whole entry): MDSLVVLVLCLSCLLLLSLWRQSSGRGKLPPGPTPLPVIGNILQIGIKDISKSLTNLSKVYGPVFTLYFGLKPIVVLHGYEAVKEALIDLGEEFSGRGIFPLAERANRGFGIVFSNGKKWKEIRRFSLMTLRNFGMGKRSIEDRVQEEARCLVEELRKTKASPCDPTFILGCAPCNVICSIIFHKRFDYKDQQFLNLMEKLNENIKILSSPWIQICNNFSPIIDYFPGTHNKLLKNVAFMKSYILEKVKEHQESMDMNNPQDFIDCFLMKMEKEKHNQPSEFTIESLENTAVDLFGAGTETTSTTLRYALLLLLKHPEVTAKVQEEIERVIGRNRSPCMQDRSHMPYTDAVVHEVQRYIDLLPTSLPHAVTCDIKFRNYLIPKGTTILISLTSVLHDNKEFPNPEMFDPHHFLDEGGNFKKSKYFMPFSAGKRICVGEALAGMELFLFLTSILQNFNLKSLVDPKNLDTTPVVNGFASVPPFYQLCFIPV
recordedMetric: IC50 (nM)
# value in nM; strip the unit string

Give the observed IC50 of COc1c(Nc2ncc(Cl)c(N[C@H]3[C@@H](C(N)=O)[C@@H]4C=C[C@H]3C4)n2)ccc2c1CC[C@@H](N1CCOCC1)CC2 [CEP-28122] for CYP 2C9 (Homo sapiens). 1300

====

assay: In vitro metabolic stability, rat; type: in vitro ADME; details: rat (R); read-out: In vitro metabolic stability t1/2
recordedMetric: half-life

COc1c(Nc2ncc(Cl)c(N[C@H]3[C@@H](C(N)=O)[C@@H]4C=C[C@H]3C4)n2)ccc2c1CC[C@@H](N1CCOCC1)CC2    6.7 min

Moving on to the next compound.
Provide only the value of recorded half-life for CNC(=O)c1ccccc1Nc1nc(Nc2ccc3c(c2OC)CCC[C@H](N2CCN(CCO)CC2)C3)ncc1Cl > 40 min

====

assay: In vitro metabolic stability, monkey; format: in vitro ADME; conditions: monkey (Mo); read-out: In vitro metabolic stability t1/2
recordedMetric: half-life (min)
Number in min, nothing else.

Tell us which half-life value is on record for CNC(=O)c1ccccc1Nc1nc(Nc2ccc3c(c2OC)CCC[C@H](N2CCN(CCO)CC2)C3)ncc1Cl [CEP-37440] 21

====

target: UniProt P06213
recordedMetric: pIC50
As a rule, pIC50 stands for the negative log10 of the concentration, concentration in M.

Enter pIC50 (test system UniProt P06213) for COc1c(Nc2ncc(Cl)c(N[C@H]3[C@@H](C(N)=O)[C@@H]4C=C[C@H]3C4)n2)ccc2c1CC[C@@H](N1CCOCC1)CC2 6.00

====

assay: Caco-2 permeability; format: in vitro ADME; conditions: human
recordedMetric: Papp (×10⁻⁶ cm/s)
State the answer as a number, implicitly in ×10⁻⁶ cm/s.

CNC(=O)c1ccccc1Nc1nc(Nc2ccc3c(c2OC)CCC[C@H](N2CCN(CCO)CC2)C3)ncc1Cl    1.26

With those in mind, consider the next molecule.
For COc1c(Nc2ncc(Cl)c(N[C@H]3[C@@H](C(N)=O)[C@@H]4C=C[C@H]3C4)n2)ccc2c1CC[C@@H](N1CCOCC1)CC2 , write its Papp. 12.6

====

experiment: in vivo; conditions: both, rat, in vivo, po
recordedMetric: NOAEL at 91 days
Number first, unit second: that is the form wanted.

Item COc1c(Nc2ncc(Cl)c(N[C@H]3[C@@H](C(N)=O)[C@@H]4C=C[C@H]3C4)n2)ccc2c1CC[C@@H](N1CCOCC1)CC2 [CEP-28122] : provide NOAEL at 91 days 30 mg/kg/day

====

Below, each entry is listed with its recorded pIC50.
target: hERG (Homo sapiens); assay: hERG patch clamp; type: cell-based
Sequence (Q12809 whole entry): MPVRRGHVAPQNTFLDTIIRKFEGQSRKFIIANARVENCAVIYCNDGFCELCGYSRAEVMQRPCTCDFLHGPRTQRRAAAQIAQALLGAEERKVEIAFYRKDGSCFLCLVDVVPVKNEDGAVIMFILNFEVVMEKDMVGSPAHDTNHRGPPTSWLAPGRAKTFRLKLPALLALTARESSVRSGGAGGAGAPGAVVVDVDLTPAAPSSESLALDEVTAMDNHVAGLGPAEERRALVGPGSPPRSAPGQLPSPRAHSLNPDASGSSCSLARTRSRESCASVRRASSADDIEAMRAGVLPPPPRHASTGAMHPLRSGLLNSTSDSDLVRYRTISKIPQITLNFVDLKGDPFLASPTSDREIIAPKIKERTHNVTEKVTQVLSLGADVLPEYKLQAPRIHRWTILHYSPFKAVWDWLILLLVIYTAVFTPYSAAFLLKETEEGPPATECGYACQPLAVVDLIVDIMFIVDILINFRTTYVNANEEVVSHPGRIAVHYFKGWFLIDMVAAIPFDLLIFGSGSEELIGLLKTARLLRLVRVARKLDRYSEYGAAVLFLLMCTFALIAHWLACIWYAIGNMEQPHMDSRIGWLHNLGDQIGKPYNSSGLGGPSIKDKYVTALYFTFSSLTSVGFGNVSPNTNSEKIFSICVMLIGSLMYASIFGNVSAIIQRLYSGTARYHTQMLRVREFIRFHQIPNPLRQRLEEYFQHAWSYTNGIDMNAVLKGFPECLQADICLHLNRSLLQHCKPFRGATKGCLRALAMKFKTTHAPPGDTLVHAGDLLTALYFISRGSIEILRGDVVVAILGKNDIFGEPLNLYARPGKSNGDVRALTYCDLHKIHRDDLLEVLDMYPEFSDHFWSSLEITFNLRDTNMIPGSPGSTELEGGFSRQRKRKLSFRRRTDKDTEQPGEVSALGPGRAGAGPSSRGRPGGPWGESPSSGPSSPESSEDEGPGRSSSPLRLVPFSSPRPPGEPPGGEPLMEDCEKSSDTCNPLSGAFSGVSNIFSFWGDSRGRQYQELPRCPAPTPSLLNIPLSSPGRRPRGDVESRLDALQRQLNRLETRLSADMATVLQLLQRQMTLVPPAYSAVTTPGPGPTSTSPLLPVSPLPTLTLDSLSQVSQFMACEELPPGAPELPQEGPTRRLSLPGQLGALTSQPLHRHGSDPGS
pIC50: −log10 of the molar value.

COc1c(Nc2ncc(Cl)c(N[C@H]3[C@@H](C(N)=O)[C@@H]4C=C[C@H]3C4)n2)ccc2c1CC[C@@H](N1CCOCC1)CC2    < 5.00

Proceeding to the next compound to report its pIC50.
Note down pIC50 recorded for CNC(=O)c1ccccc1Nc1nc(Nc2ccc3c(c2OC)CCC[C@H](N2CCN(CCO)CC2)C3)ncc1Cl < 5.00

====

target: ALK (Homo sapiens); test: ALK cellular assay; type: cell-based; settings: 75% murine plasma; read-out: ALK cellular IC50 in 75% murine plasma
Sequence (Q9UM73 with tags, fused parts or gaps): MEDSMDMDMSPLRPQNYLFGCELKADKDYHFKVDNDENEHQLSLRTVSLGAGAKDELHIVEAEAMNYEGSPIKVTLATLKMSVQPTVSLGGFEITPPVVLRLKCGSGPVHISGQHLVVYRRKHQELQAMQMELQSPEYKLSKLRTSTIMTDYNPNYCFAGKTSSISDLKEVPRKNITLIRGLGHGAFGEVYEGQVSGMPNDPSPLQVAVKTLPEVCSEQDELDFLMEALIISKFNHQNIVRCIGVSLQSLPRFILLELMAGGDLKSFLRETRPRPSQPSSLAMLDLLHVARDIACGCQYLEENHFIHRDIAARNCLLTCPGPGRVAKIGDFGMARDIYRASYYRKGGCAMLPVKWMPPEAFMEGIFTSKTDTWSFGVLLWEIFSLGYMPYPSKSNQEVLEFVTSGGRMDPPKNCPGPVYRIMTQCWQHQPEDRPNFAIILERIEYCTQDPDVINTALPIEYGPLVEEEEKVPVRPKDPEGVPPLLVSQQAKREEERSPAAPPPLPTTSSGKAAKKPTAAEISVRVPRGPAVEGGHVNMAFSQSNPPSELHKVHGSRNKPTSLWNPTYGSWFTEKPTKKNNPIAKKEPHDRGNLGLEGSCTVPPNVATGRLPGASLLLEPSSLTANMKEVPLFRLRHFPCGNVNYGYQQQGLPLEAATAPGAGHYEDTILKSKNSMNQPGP
recordedMetric: pIC50
In plain terms, pIC50 is the concentration in mol/L turned into minus its base-10 logarithm.

For COc1c(Nc2ncc(Cl)c(N[C@H]3[C@@H](C(N)=O)[C@@H]4C=C[C@H]3C4)n2)ccc2c1CC[C@@H](N1CCOCC1)CC2 [CEP-28122] , write its pIC50. 6.52

====

target: FAK (Homo sapiens, UniProt Q05397); assay: FAK enzymatic assay; format: biochemical
recordedMetric: pIC50
The quantity pIC50 is defined as the negative base-10 logarithm of the molar concentration.

Report measured pIC50; entry is COc1c(Nc2ncc(Cl)c(N[C@H]3[C@@H](C(N)=O)[C@@H]4C=C[C@H]3C4)n2)ccc2c1CC[C@@H](N1CCOCC1)CC2 [CEP-28122] 7.53
